STUDY SYSTEM: MAP kinase-interacting serine/threonine-protein kinase 1 (Homo sapiens) (UniProt Q9BUB5)
Sequence (Q9BUB5 whole entry, looked up): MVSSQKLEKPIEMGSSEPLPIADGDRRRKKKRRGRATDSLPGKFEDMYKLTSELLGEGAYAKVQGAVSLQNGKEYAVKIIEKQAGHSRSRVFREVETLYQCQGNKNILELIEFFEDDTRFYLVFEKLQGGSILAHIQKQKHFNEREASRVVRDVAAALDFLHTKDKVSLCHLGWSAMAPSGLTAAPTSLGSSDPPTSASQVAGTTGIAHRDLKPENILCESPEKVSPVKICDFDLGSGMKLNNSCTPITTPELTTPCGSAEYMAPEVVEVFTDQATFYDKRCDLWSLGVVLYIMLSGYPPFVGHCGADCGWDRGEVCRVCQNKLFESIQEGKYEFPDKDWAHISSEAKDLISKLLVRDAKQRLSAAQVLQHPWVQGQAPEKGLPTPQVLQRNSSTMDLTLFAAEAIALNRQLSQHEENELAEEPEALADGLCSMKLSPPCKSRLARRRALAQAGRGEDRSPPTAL
PROTOCOL DETAILS: Inhibition of MNK1 (unknown origin) at 10 uM
RECORDED METRIC: inhibition (%)
Output spec: scalar in %, unitless text.

input: May I ask what inhibition has been recorded for C/C=C/C(=O)NC/C=C/c1cc(OCCCN2CCOCC2)cc(O)c1C(=O)OC(C)C ?
output: 5.8

input: May I ask what inhibition has been recorded for C=CC(=O)NC/C=C/c1cc(OCCc2ccc(F)cc2)cc(O)c1C(=O)OC(C)C ?
output: 5.6

input: May I ask what inhibition has been recorded for COc1cc(/C=C/CN2C(=O)C=CC2=O)c(C(=O)OC(C)C)c(OC(C)=O)c1 ?
output: 6.7

input: May I ask what inhibition has been recorded for C=CC(=O)NC/C=C/c1cc(OCCCN2CCOCC2)cc(O)c1C(=O)OC(C)C ?
output: 8

input: May I ask what inhibition has been recorded for CC(C)OC(=O)c1c(O)cc(OCCCN2CCOCC2)cc1/C=C/CN1C(=O)C=CC1=O ?
output: 8
